- ASSAY_PROTOCOL: growth suppression of PTEN-null colon cells, dose response, cell-based, HCT116 PTEN knockout (AID 1047);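 note: HCT116 colon tumor cells with PTEN knocked out; cells exposed to compound for 60 hours before readout; potency for loss of cell viability measured by luminescence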
- Assay type: functional
Active and inactive are the calls of the source. The rule behind the calls is not given here.
REPORTED_PROPERTY: EC50

A selection of reference data follows.
MOLECULE	EC50
Cc1nc2ccccc2n1/N=C/c1ccc([N+](=O)[O-])s1	3.72 µM (active)
Cn1cc([N+](=O)[O-])c(C(=O)Nc2cc(Oc3ccccc3)cc([N+](=O)[O-])c2)n1	0.389 µM (active)
O=C(/C=C/c1ccco1)NC(=S)Nc1cc(-c2nc3ccccc3s2)ccc1Cl	7.86 µM (active)
Cc1nn(-c2nc3ccccc3s2)c(N)c1Sc1ccc(F)cc1	15.5 µM (active)

Task: Return reported EC50. Input molecule: Oc1c(I)cc(Cl)c2cccnc12 [CLIOQUINOL]
Result: 20.4 µM (active)
